Catalogue of Ryegrass, Italian plant response rating values
- Tested on: ryegrass, Italian
- TEST_NAME: Test C preemergence
- Type: in vivo, Lolium multiflorum
- EXPERIMENTAL_PARAMETERS: preemergence, 62 g ai/ha; scale 0 to 100 (0 no effect, 100 complete control), 13 to 15 days
Form rule: numeric answer, no unit written next to it.

Some entries whose results are on file:
{"MOLECULE": "CCc1cc(C(=O)NC2CC2)nn1Cc1ccnc(OCC(F)(F)F)c1 [Compound 200]", "Ryegrass, Italian plant response rating": 90}
{"MOLECULE": "CCCc1cc(C(=O)NCC)nn1Cc1cc(C(F)(F)F)nn1C [Compound 129]", "Ryegrass, Italian plant response rating": 90}
{"MOLECULE": "CCCc1cc(C(=O)NCC(F)(F)F)nn1Cc1ccnc(C(F)(F)F)c1 [Compound 105]", "Ryegrass, Italian plant response rating": 95}
{"MOLECULE": "CCCc1cc(C(=O)NOCC)nn1Cc1ccnc(C(F)(F)F)c1 [Compound 185]", "Ryegrass, Italian plant response rating": 30}

Turning now to a further molecule:
query: Find the measured Ryegrass, Italian plant response rating: item CCCNC(=O)c1cc(CC)n(Cc2ccnc(OC(F)F)c2)n1 [Compound 132] , target or system ryegrass, Italian.
result: 85

###

- System: corn
- TEST_NAME: Test A preemergence
- Format: in vivo, Zea mays
- EXPERIMENTAL_PARAMETERS: preemergence, 125 g ai/ha; visual injury, 0 to 100 scale, approx. 10 days
- Text: […]
Catalogue of Corn plant response rating values
Form rule: numeric answer, no unit written next to it.

query: # input compound: Cc1cc(C(=O)NC2CC2)nn1Cc1ccc(F)c(C(F)(F)F)c1 [Compound 11] ; wanted: its Corn plant response rating
result: 0

###

- Tested on: corn
- TEST_NAME: Test C postemergence
- Format: in vivo, Zea mays
- EXPERIMENTAL_PARAMETERS: postemergence, 250 g ai/ha; scale 0 to 100 (0 no effect, 100 complete control)
EXPERIMENTAL_ENDPOINT: Plant response rating, Corn
Form rule: numeric answer, no unit written next to it.

Some entries whose results are on file:
{"COMPOUND": "CCNC(=O)c1cc(CC)n(Cc2ccnc(C(F)(F)F)c2)n1 [Compound 196]", "MEASUREMENT_TARGET": "corn", "DATA_VALUE": 15}
{"COMPOUND": "CCCNC(=O)c1cc(CCC)n(Cc2cc(C(F)(F)F)nn2C)n1 [Compound 198]", "MEASUREMENT_TARGET": "corn", "DATA_VALUE": 15}
{"COMPOUND": "CCCc1cc(C(=O)NOCC)nn1Cc1ccnc(C(F)(F)F)c1 [Compound 185]", "MEASUREMENT_TARGET": "corn", "DATA_VALUE": 65}
{"COMPOUND": "CCNC(=O)c1cc(CC)n(Cc2ccnc(OC(F)F)c2)n1 [Compound 130]", "MEASUREMENT_TARGET": "corn", "DATA_VALUE": 25}
{"COMPOUND": "CCCc1cc(C(=O)NCC)nn1Cc1ccnc(C(F)(F)F)c1 [Compound 95]", "MEASUREMENT_TARGET": "corn", "DATA_VALUE": 10}

query: # input compound: Cc1cc(C(=O)NC(C)C)nn1Cc1ccnc(C(F)(F)F)c1 [Compound 197] ; wanted: its Plant response rating, Corn
result: 10

query: What about CCc1cc(C(=O)NC2CC2)nn1Cc1ccnc(OC(F)F)c1 [Compound 98] ?
result: 10

query: What about CCc1cc(C(=O)NCC(F)(F)F)nn1Cc1ccnc(C(F)(F)F)c1 [Compound 78] ?
result: 80
